# System: MDA-MB-231
# assayComment: Antimigratory activity in human MDA-MB-231 cells after 24 hrs by wound healing assay
# protocolConditions: MDA-MB-231, 24 h
readoutName: IC50 (µM)

[I] CC1=CC[C@H]2[C@H](CC[C@]2(C)O)C(C)(C)[C@@H]1CC[C@H]1[C@]2(C)CC[C@@H](O)O[C@H]2CC[C@@]1(C)O
[II] CC1=CC[C@H]2[C@H](CC[C@]2(C)O)C(C)(C)[C@@H]1CC[C@H]1[C@]2(C)CC[C@H](OC(=O)c3ccco3)C(C)(C)O[C@H]2CC[C@@]1(C)O
Compare I and II by numeric IC50 and name the larger one. // output: label of the selected item
I

[A] CC1=CC[C@H]2[C@@H]1CC=C(C)[C@@H](CCC1=C(C)CC[C@@H]3OC(C)(C)[C@@H](O)CC[C@@]13C)C2(C)C
[B] CC1=CC[C@H]2[C@H](CC[C@]2(C)O)C(C)(C)[C@@H]1CC[C@H]1[C@]2(C)CC[C@H](OC(=O)c3ccccc3)C(C)(C)O[C@H]2CC[C@@]1(C)O
Compare A and B by numeric IC50 and name the larger one. // output: label of the selected item
A

[P] CC1=CC[C@H]2[C@@H]1CC=C(C)[C@@H](CC[C@H]1[C@]3(C)CC[C@H](OC(=O)CCC(=O)O)C(C)(C)O[C@H]3CC[C@@]1(C)O)C2(C)C
[Q] CC1=CC[C@H]2[C@@H]([C@@H]1CC[C@H]1[C@]3(C)CC[C@H](O)C(C)(C)O[C@H]3CC[C@@]1(C)O)C(C)(C)CC[C@]2(C)O
Compare P and Q by numeric IC50 and name the larger one. // output: label of the selected item
Q
(Q: 42 µM, P: 21 µM)

====

Measured pIC50, listed per entry.
# Test system: MCF7
# assayComment: cells
# protocolConditions: Homo sapiens, MCF7, 72 h
pIC50: −log10 of the molar value.

Below: 10 molecules and their reported pIC50.
molecule	pIC50
CC(C)=CCC[C@@]1(C)C(CC[C@H]2[C@]3(C)CC[C@H](O)C(C)(C)O[C@H]3CC[C@@]2(C)O)=C(C)CC[C@H]1O	< 4.30
CC1(C)O[C@H]2CC[C@@](C)(O)[C@@H](CC[C@@H]3C(C=O)=CC[C@H]4[C@H](CC[C@]4(C)O)C3(C)C)[C@]2(C)CC[C@@H]1O	< 4.30
CC1=CC[C@H]2[C@H](CC[C@]2(C)O)C(C)(C)[C@@H]1CC[C@H]1[C@]2(C)CC[C@H](OCc3ccccc3)C(C)(C)O[C@H]2CC[C@@]1(C)O	< 4.30
CC1=CC[C@H]2[C@H](CC[C@]2(C)O)C(C)(C)[C@@H]1CC[C@H]1[C@]2(C)CC[C@H](OC(=O)NS(=O)(=O)c3ccc(C)cc3)C(C)(C)O[C@H]2CC[C@@]1(C)O	< 4.30
C=C(C)C(CC[C@@]1(C)C(CC[C@H]2[C@]3(C)CC[C@H](O)C(C)(C)O[C@H]3CC[C@@]2(C)O)=C(C)CC[C@H]1O)OO (stereo partly drawn)	4.51
CC1=CC[C@H]2[C@@H]1CC=C(C)[C@@H](CC[C@H]1[C@]3(C)CC[C@H](OC(=O)CCC(=O)O)C(C)(C)O[C@H]3CC[C@@]1(C)O)C2(C)C	< 4.30
CC1=CCC2C(CC[C@@]2(C)O)C(C)(C)C1CC[C@@H]1[C@@]2(C)CCC(=O)C(C)(C)O[C@@H]2CC[C@]1(C)O (stereo partly drawn)	< 4.30
CC1=C(CC[C@H]2[C@]3(C)CC[C@H](O)C(C)(C)O[C@H]3CC[C@@]2(C)O)[C@@H]2[C@H](C[C@H]1C(=O)O)[C@@](C)(O)CCC2(C)C	4.40
CC1=CC[C@H]2[C@H](CC[C@]2(C)O)C(C)(C)[C@@H]1CC[C@H]1[C@]2(C)CC[C@H](OC(=O)c3ccco3)C(C)(C)O[C@H]2CC[C@@]1(C)O	4.59
C[C@@H]1C(=O)C[C@H]2[C@@H](/C1=C/C[C@H]1[C@]3(C)CC[C@H](O)C(C)(C)O[C@H]3CC[C@@]1(C)O)C(C)(C)CC[C@]2(C)O	< 4.30

Look up and state reported pIC50 for CC1=CC[C@H]2[C@H](CC[C@]2(C)O)C(C)(C)[C@@H]1CC[C@@H]1[C@](C)(O)[C@H](O)C[C@@H]2OC(C)(C)[C@@H](O)CC[C@]21C
< 4.30

Look up and state reported pIC50 for CC1=CC[C@H]2[C@H](CC[C@]2(C)O)C(C)(C)[C@@H]1CC[C@H]1[C@]2(C)CC[C@H](OC(=O)c3ccc(C)cc3)C(C)(C)O[C@H]2CC[C@@]1(C)O
< 4.30

Look up and state reported pIC50 for CC1=CC[C@H]2[C@@H]1CC=C(C)[C@@H](CC[C@H]1[C@]3(C)CC[C@H](O)C(C)(C)O[C@H]3CC[C@@]1(C)O)C2(C)C
< 4.30

====

# System: MDA-MB-231
# assayComment: Antimigratory activity in human MDA-MB-231 cells after 24 hrs by wound healing assay
# protocolConditions: MDA-MB-231, 24 h
pIC50: −log10 of the molar value.
readoutName: pIC50

structureNotation	readoutName	assayResult
CC1=CC[C@H]2[C@H](CC[C@]2(C)O)C(C)(C)[C@@H]1CC[C@H]1[C@]2(C)CC[C@H](OC(=O)c3ccc(C)cc3)C(C)(C)O[C@H]2CC[C@@]1(C)O	pIC50	4.93

[a] CC(=O)O[C@H]1CC[C@]2(C)[C@H](CC[C@@](C)(O)[C@H]2CC[C@@H]2C(C)=CC[C@@H]3C(C)=CC[C@@H]3C2(C)C)OC1(C)C
[b] CC1=CC[C@H]2[C@@H]1CC=C(C)[C@@H](CC[C@H]1[C@]3(C)CC[C@H](OC(=O)c4ccccc4)C(C)(C)O[C@H]3CC[C@@]1(C)O)C2(C)C
Given a and given b , which shows the smaller recorded pIC50? // output: label of the selected item
a

====

# Test system: MDA-MB-231
# assayComment: Antimigratory activity in human MDA-MB-231 cells after 24 hrs by wound healing assay
# protocolConditions: MDA-MB-231, 24 h
pIC50: −log10 of the molar value.
Measured pIC50, listed per entry.

Below: 3 compounds and their reported pIC50.
structureNotation	assayResult
CC(C)=CCC[C@@]1(C)C(CC[C@H]2[C@]3(C)CC[C@H](O)C(C)(C)O[C@H]3CC[C@@]2(C)O)=C(C)CC[C@H]1O	< 4.30
CC1=C(CC[C@H]2[C@]3(C)CC[C@H](O)C(C)(C)O[C@H]3CC[C@@]2(C)O)[C@@H]2[C@H](CC1=O)[C@@](C)(O)CCC2(C)C	< 4.30
C[C@@H]1C(=O)C[C@H]2[C@@H](/C1=C/C[C@H]1[C@]3(C)CC[C@H](O)C(C)(C)O[C@H]3CC[C@@]1(C)O)C(C)(C)CC[C@]2(C)O	< 4.30

Next up:
Recall the reported pIC50 of CC1(C)O[C@H]2CC[C@@](C)(O)[C@@H](CC[C@@H]3C(CO)=CC[C@H]4[C@H](CC[C@]4(C)O)C3(C)C)[C@]2(C)CC[C@@H]1O when tested on MDA-MB-231.
< 4.30
